Target: PARP7 (Homo sapiens);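 note: MSD light signal quantifying PARP7 captured by a plate-immobilized probe, read after 1.5 h equilibration plus 1.5 h with SULFO-TAG anti-GST antibody at room temperature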
Sequence (Q7Z3E1 1-657): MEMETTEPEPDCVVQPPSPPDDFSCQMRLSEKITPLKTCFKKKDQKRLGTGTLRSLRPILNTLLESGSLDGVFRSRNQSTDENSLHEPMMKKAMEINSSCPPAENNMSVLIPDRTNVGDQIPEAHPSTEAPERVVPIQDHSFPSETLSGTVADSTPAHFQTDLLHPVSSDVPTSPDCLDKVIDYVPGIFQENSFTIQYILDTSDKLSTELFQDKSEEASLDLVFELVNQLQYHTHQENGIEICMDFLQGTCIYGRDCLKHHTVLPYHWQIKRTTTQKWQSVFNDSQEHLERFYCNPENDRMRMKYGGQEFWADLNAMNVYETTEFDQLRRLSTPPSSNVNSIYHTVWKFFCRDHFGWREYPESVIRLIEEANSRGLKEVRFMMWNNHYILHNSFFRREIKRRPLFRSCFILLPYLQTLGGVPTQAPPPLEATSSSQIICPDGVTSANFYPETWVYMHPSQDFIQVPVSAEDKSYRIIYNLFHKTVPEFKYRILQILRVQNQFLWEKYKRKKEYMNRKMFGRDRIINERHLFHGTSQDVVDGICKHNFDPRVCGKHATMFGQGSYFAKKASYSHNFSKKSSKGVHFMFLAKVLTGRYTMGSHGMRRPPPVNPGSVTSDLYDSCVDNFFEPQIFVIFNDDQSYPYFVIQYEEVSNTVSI
readoutKind: pIC50
Please treat pIC50 as minus the base-10 logarithm of the molar concentration.

- compound: "O=C(CCCCc1n[nH]c(=O)c2c1CCCC2)N1CCN(c2ncc(C(F)(F)F)cn2)CC1 [Example 69]"
  targetOrSystem: "PARP7 (Homo sapiens)"
  readoutKind: "pIC50"
  quantitativeReadout: 9.12
- compound: "O=C([C@@H]1Cc2ccccc2N1c1cc(C(F)(F)F)c(=O)[nH]n1)N1CCN(c2ncc(C(F)(F)F)cn2)CC1 [Example 49]"
  targetOrSystem: "PARP7 (Homo sapiens)"
  readoutKind: "pIC50"
  quantitativeReadout: 8.96
- compound: "O=C(CCc1cc(C(F)(F)F)c(=O)[nH]n1)N1CCN(c2ncc(C(F)(F)F)cn2)CC1 [Example 7]"
  targetOrSystem: "PARP7 (Homo sapiens)"
  readoutKind: "pIC50"
  quantitativeReadout: 9.02
- compound: "O=C(N1CCN(c2ncc(C(F)(F)F)cn2)CC1)N1CCC[C@@H](Nc2cc(C(F)(F)F)c(=O)[nH]n2)C1 [Example 38]"
  targetOrSystem: "PARP7 (Homo sapiens)"
  readoutKind: "pIC50"
  quantitativeReadout: 8.57
- compound: "O=C(CC[C@@H]1Cc2ccccc2N1c1cc(C(F)(F)F)c(=O)[nH]n1)N1CCN(c2ncc(C(F)(F)F)cn2)CC1 [Example 50]"
  targetOrSystem: "PARP7 (Homo sapiens)"
  readoutKind: "pIC50"
  quantitativeReadout: 9.45

Turning to the following compound.
Please report the recorded pIC50 for CC(C)(CCNc1cc(C(F)(F)F)c(=O)[nH]n1)C(=O)N1CCN(c2ncc(C(F)(F)F)cn2)CC1 [Example 71] .
8.87

These data points were gathered from patent US20230183216A1.
